ASSAY_DETAILS: chemical genetic growth profiling, strain panel (AID 1159580);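 further: tested at 20 µM; growth read once vehicle control cultures reached saturation at 30 °C; lower values mean less growth of the strain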
CONDITION: S. cerevisiae deletion strains, growth OD, locus YJR043C, strain POL32, active compounds read low
About 2,000 (36%) of roughly 5,500 compounds were called active. Roughly 18% stayed inconclusive and do not appear here. This is one part of the list.
# note: boundary value 1 maps to Not satisfied; normalized growth below it maps to Satisfied

Example entries begin here.
COMPOUND: O=C(/C=C/c1ccccc1)c1ccc(O[C@@H]2O[C@H](CO)[C@@H](O)[C@H](O)[C@H]2O)cc1O
LABEL: Satisfied
//
COMPOUND: O=C(/C=C/c1ccc(O)cc1)c1ccc(O)cc1O
LABEL: Satisfied
//
COMPOUND: Cn1c(=O)[nH]c2nc[nH]c2c1=O
LABEL: Not satisfied
//
COMPOUND: CC(C)OC(=O)Nc1cccc(Cl)c1
LABEL: Not satisfied

In the record for CC1=C(C(=O)O)N2C(=O)[C@@H](NC(=O)[C@@H](N)c3ccc(O)cc3)[C@H]2SC1 , is normalized growth less than 1?
Satisfied

Continue with O=C1c2ccccc2C(=O)c2ccccc21
Satisfied

Continue with CC(=O)Nc1c(I)cc(I)c(C(=O)O)c1I
Not satisfied

Continue with C[C@H]1C(=O)CCC2[C@]3(C)CC[C@@]4(C)C5CC(C)(C)CC[C@]5(C)CC[C@]4(C)C3CC[C@@]21C (some centres undefined)
Satisfied

Continue with Cc1c(C)c(C)c(S(=O)(=O)Nc2ccccc2N)c(C)c1C
Not satisfied

Continue with CC(=O)CCCCn1c(=O)c2c(ncn2C)n(C)c1=O
Not satisfied
